Where these numbers come from: PubChem BioAssay (NCATS)

test system: CP305; test: qHTS profiling for inhibitors of Plasmodium falciparum proliferation (AID 504749); further: nearly all actives have a fitted effect of over 60% in size; conditions: P. falciparum in erythrocytes, SYBR Green DNA, 72 h; series mostly up to 12.8 µM
Inconclusive results are not listed. The source made the active and inactive calls. The call rests on the fitted dose curve; in most records, active means well fitted inhibition curve with a large enough effect; inconclusive means small, poorly fitted or top-dose-only effect; inactive means flat fitted curve, though single readings scatter.
A correct response names exactly one class from y for active, n for inactive

See these solved cases before continuing.
Compound	Assayed system	Group
CCC(=O)O[C@@]1(C(=O)SCF)[C@@H](C)C[C@H]2[C@@H]3C[C@@H](F)C4=CC(=O)C=C[C@@]4(C)[C@]3(F)[C@@H](O)C[C@]21C	CP305	n
C[C@@]12C=CC(=O)C=C1CCC1C3CC(O)[C@@](O)(C(=O)CO)[C@]3(C)CC(O)[C@]12F (some centres not stated)	CP305	n
CNC1C(OC2C(O[C@@H]3C(O)C(O)[C@@H](N=C(N)N)C(O)C3N=C(N)N)OC(C)[C@@]2(O)CO)OC(CO)C(O)C1O (some centres not stated)	CP305	n
C[C@]12C=CC(=O)C=C1CCC1C2C(O)C[C@]2(C)C1CC[C@]2(O)C(=O)CO (some centres not stated)	CP305	n

Task item: Outcome logged for `C[C@@H]1C[C@H]2[C@@H]3C[C@H](F)C4=CC(=O)C=C[C@@]4(C)[C@]3(F)[C@H](O)C[C@]2(C)[C@@]1(O)C(=O)CO` in this assay:
Reply: n

Task item: Per the records of this test, what outcome belongs to `CC[C@H]1NC(=O)c2cc(S(N)(=O)=O)c(Cl)cc2N1` ?
Reply: n

Task item: Test call, this compound: `COc1cc(N[C@@H](C)CCCN)c2ncccc2c1`
Reply: y
